# test summary: Mouse pharmacokinetics
# measurement parameters: ICR, mouse, plasma, iv, 1 mg/kg
property name: half-life

compound="COc1cc(O[C@H]2C(C)(C)[C@H](NC(=O)c3ccc(N4CCC(CN5CCc6ccc7c(C8CCC(=O)NC8=O)noc7c6CC5)CC4)nc3)C2(C)C)ccc1C#N (stereo partly shown) [Compound 13]" property_name=half-life observed_value="9.7 h"

---

# test summary: Mouse pharmacokinetics
# measurement parameters: ICR, mouse, plasma, po, 10 mg/kg
property name: AUC (ng·h/mL)

compound="COc1cc(O[C@H]2C(C)(C)[C@H](NC(=O)c3ccc(N4CCC(CN5CCc6ccc7c(C8CCC(=O)NC8=O)noc7c6CC5)CC4)nc3)C2(C)C)ccc1C#N (stereo partly shown) [Compound 13]" observed_value=28000

---

In this section, each of the compounds is paired with its reported Dmax.
# system: AR in MDA-PCA-2B (L702H\T878A) cells (Homo sapiens, UniProt P10275, L702H/T878A)
# Construct: Assay on degradation activity for AR in MDA-PCA-2B (L702H\T878A) cells; endogenous in cells; host or cells: MDA-PCA-2B cells
# Sequence (P10275 1-920 L702H/T878A): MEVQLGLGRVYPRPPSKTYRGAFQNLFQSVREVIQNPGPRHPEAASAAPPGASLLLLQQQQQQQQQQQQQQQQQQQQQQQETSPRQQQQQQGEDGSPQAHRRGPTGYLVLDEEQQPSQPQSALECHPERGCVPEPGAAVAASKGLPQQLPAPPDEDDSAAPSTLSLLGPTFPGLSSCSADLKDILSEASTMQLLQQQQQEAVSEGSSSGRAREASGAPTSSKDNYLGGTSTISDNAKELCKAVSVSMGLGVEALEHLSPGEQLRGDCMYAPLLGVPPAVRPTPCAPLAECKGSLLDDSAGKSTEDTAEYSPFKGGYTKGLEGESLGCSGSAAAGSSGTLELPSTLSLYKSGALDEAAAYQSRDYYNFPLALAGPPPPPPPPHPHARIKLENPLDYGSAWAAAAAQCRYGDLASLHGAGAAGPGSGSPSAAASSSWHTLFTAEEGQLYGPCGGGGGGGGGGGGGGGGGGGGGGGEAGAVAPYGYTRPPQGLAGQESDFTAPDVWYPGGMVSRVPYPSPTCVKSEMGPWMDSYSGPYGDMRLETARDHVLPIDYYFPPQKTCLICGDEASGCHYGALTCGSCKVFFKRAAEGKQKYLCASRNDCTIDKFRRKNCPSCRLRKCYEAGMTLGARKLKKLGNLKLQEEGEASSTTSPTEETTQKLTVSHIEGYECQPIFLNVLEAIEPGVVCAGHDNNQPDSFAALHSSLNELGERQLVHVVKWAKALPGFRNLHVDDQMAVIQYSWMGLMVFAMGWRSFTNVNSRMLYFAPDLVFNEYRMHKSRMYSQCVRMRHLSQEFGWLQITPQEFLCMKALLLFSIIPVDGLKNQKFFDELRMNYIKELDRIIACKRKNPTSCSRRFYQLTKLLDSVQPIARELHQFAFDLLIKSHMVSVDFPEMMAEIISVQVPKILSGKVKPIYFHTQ
# test summary: Assay on degradation activity for AR in MDA-PCA-2B (L702H\T878A) cells (HTRF)
# Assay type: cell-based
# measurement parameters: maximum degradation rate, 24 h
property name: Dmax

compound="COc1cc(O[C@H]2C(C)(C)[C@H](NC(=O)c3ccc(N4CCC(CN5CCc6c(ccc7c(C8CCC(=O)NC8=O)noc67)C5)CC4)cc3)C2(C)C)ccc1C#N (some centres unmarked)" property_name=Dmax observed_value="> 70%"
compound="COc1cc(O[C@H]2C(C)(C)[C@H](NC(=O)c3ccc(N4CCC(CN5CCc6c(ccc7c(C8CCC(=O)NC8=O)noc67)C5)CC4)nc3)C2(C)C)ccc1C#N (some centres unmarked)" property_name=Dmax observed_value="> 70%"
compound="COc1cc(O[C@H]2C(C)(C)[C@H](NC(=O)c3ccc(N4CCC(CN5CCc6ccc7c(C8CCC(=O)NC8=O)noc7c6CC5)CC4)nc3)C2(C)C)ccc1C#N (some centres unmarked)" property_name=Dmax observed_value="> 70%"
compound="COc1cc(O[C@H]2C(C)(C)[C@H](NC(=O)c3ccc(N4CCC(CN5CCc6ccc7c(C8CCC(=O)NC8=O)noc7c6C5)CC4)nc3)C2(C)C)ccc1C#N (some centres unmarked)" property_name=Dmax observed_value="> 70%"
compound="COc1cc(O[C@H]2C(C)(C)[C@H](NC(=O)c3ccc(N4CCC(CN5CCc6ccc7c(C8CCC(=O)NC8=O)noc7c6C5)CC4)cc3)C2(C)C)ccc1C#N (some centres unmarked)" property_name=Dmax observed_value="> 70%"
compound="COc1cc(O[C@H]2C(C)(C)[C@H](NC(=O)c3ccc(N4CCC(CN5Cc6ccc7c(C8CCC(=O)NC8=O)noc7c6C5)CC4)cc3)C2(C)C)ccc1C#N (some centres unmarked)" property_name=Dmax observed_value="> 70%"
compound="COc1cc(O[C@H]2C(C)(C)[C@H](NC(=O)c3ccc(N4CCC(CN5CCc6c(ccc7c(C8CCC(=O)NC8=O)noc67)C5)CC4)nn3)C2(C)C)ccc1C#N (some centres unmarked)" property_name=Dmax observed_value="> 70%"
compound="COc1cc(O[C@H]2C(C)(C)[C@H](NC(=O)c3ccc(N4CCC(CN5CCc6ccc7c(C8CCC(=O)NC8=O)noc7c6CC5)CC4)cc3)C2(C)C)ccc1C#N (some centres unmarked)" property_name=Dmax observed_value="> 70%"
compound="COc1cc(O[C@H]2C(C)(C)[C@H](NC(=O)c3ccc(N4CCC(CN5Cc6ccc7c(C8CCC(=O)NC8=O)noc7c6C5)CC4)nc3)C2(C)C)ccc1C#N (some centres unmarked)" property_name=Dmax observed_value="> 70%"
compound="COc1cc(O[C@H]2C(C)(C)[C@H](NC(=O)c3cnc(N4CCC(CN5CCc6c(ccc7c(C8CCC(=O)NC8=O)noc67)C5)CC4)nc3)C2(C)C)ccc1C#N (some centres unmarked)" property_name=Dmax observed_value="> 70%"
compound="COc1cc(O[C@H]2C(C)(C)[C@H](NC(=O)c3cnc(N4CCC(CN5CCc6c(ccc7c(C8CCC(=O)NC8=O)noc67)C5)CC4)cn3)C2(C)C)ccc1C#N (some centres unmarked)" property_name=Dmax observed_value="> 70%"

---

# test summary: in vivo
# measurement parameters: mouse, iv, 1 mg/kg
// boundary case: clearance equal to 3 mL/min/kg maps to N; strictly smaller maps to Y

compound="COc1cc(O[C@H]2C(C)(C)[C@H](NC(=O)c3ccc(N4CCC(CN5Cc6ccc7c(C8CCC(=O)NC8=O)noc7c6C5)CC4)cc3)C2(C)C)ccc1C#N (some centres unmarked)" class_label=Y
compound="COc1cc(O[C@H]2C(C)(C)[C@H](NC(=O)c3cnc(N4CCC(CN5CCc6c(ccc7c(C8CCC(=O)NC8=O)noc67)C5)CC4)cn3)C2(C)C)ccc1C#N (some centres unmarked)" class_label=N
compound="COc1cc(O[C@H]2C(C)(C)[C@H](NC(=O)c3ccc(N4CCC(CN5CCc6c(ccc7c(C8CCC(=O)NC8=O)noc67)C5)CC4)cc3)C2(C)C)ccc1C#N (some centres unmarked)" class_label=Y
compound="COc1cc(O[C@H]2C(C)(C)[C@H](NC(=O)c3cnc(N4CCC(CN5CCc6c(ccc7c(C8CCC(=O)NC8=O)noc67)C5)CC4)nc3)C2(C)C)ccc1C#N (some centres unmarked)" class_label=Y
compound="COc1cc(O[C@H]2C(C)(C)[C@H](NC(=O)c3ccc(N4CCC(CN5CCc6ccc7c(C8CCC(=O)NC8=O)noc7c6CC5)CC4)cc3)C2(C)C)ccc1C#N (some centres unmarked)" class_label=Y

---

# test summary: in vivo
# measurement parameters: mouse, iv, 1 mg/kg
property name: half-life (h)

compound="COc1cc(O[C@H]2C(C)(C)[C@H](NC(=O)c3cnc(N4CCC(CN5CCc6c(ccc7c(C8CCC(=O)NC8=O)noc67)C5)CC4)cn3)C2(C)C)ccc1C#N (some centres unmarked)" unit_abbrev=h observed_value=9.91
compound="COc1cc(O[C@H]2C(C)(C)[C@H](NC(=O)c3ccc(N4CCC(CN5CCc6ccc7c(C8CCC(=O)NC8=O)noc7c6CC5)CC4)cc3)C2(C)C)ccc1C#N (some centres unmarked)" unit_abbrev=h observed_value=13
compound="COc1cc(O[C@H]2C(C)(C)[C@H](NC(=O)c3ccc(N4CCC(CN5CCc6c(ccc7c(C8CCC(=O)NC8=O)noc67)C5)CC4)cc3)C2(C)C)ccc1C#N (some centres unmarked)" unit_abbrev=h observed_value=13.9
compound="COc1cc(O[C@H]2C(C)(C)[C@H](NC(=O)c3ccc(N4CCC(CN5Cc6ccc7c(C8CCC(=O)NC8=O)noc7c6C5)CC4)cc3)C2(C)C)ccc1C#N (some centres unmarked)" unit_abbrev=h observed_value=18
compound="COc1cc(O[C@H]2C(C)(C)[C@H](NC(=O)c3cnc(N4CCC(CN5CCc6c(ccc7c(C8CCC(=O)NC8=O)noc67)C5)CC4)nc3)C2(C)C)ccc1C#N (some centres unmarked)" unit_abbrev=h observed_value=10.5

Each recorded value in this set is attributed to patent EP4768489A1.
